Could you please report measured melting point for the items listed next?

CC(=O)c1ccc(C=C(Cl)Cl)s1 ... 81 to 85 °C
O=C(CCc1ccc(Cl)cc1)N1CCC(CCO)CC1 ... 88 to 90 °C
NS(=O)(=O)c1cccc(NC(=O)c2cnn3c(C(F)(F)F)cc(-c4ccc(OC(F)(F)F)cc4)nc23)c1 ... 257 °C

Dear colleague, could you please provide melting point for the compounds listed below?
1. NS(=O)(=O)c1ccc(NC(=O)C(=O)N2CCC(Cc3ccccc3)CC2)cc1
2. O=S(=O)(c1c[nH]c(Br)c1-c1ccc(Cl)cc1)C(F)(F)F

184 to 187 °C
163 to 165 °C

Dear colleague, could you please provide melting point for the compounds listed below?
1. COP(=O)(Cc1cc(C(C)(C)C)c(O)c(C(C)(C)C)c1)c1ccccc1 (stereo not drawn)
2. CCCCCCCCCCCCCCOc1ccc(CC(=O)OC)cc1F
3. CCOC(=O)NC1Cc2ccccc2C1Nc1ccccc1CO (stereo not drawn)
4. COCCNC(=O)c1ccnc(-c2cccc3cc(Cc4cccc(C(F)(F)F)c4)sc23)c1
5. C#CCN1CCc2cc(OC)c(O)c3c2C1Cc1cc(OC)c(OC)cc1-3 (stereo not drawn)
6. COc1ccc(/C=C/c2ccc3c(=O)n(-c4ccccc4)ncc3c2)cc1
7. CC(C)n1nc(-c2ccc(OCCCCl)cc2)c2sccc2c1=O

1. 112 to 114 °C
2. 38 to 40 °C
3. 115 to 117 °C
4. 108 to 109 °C
5. 135 to 150 °C
6. 198 to 199 °C
7. 92 to 94 °C

Dear colleague, could you please provide melting point for the compounds listed below?
1. CCCCCCCCCCCC(=O)N1CCOC1=O
2. Clc1ccc2c(c1)C(c1ccsc1)=NCC1COCCN21 (stereo not drawn)
3. CC(C)(S)C(N)P(C)(=O)O (stereo not drawn)
4. O=C(O)c1cccc(CC2COc3ccc(OCc4ccc5ccccc5n4)cc3C2O)c1 (stereo not drawn)
5. Cc1c(-c2ncc(Cl)cc2F)nn(C)c1C(=O)O

["63 to 65 °C", "207 to 212 °C", "221 °C", "193 to 195 °C", "194 to 196 °C"]

Each recorded value in this set is attributed to a melting point compilation (Tetko et al.; mined from patent text by program, amines drawn as free bases though some values may be those of a salt).
